Experiment: chemical genetic growth profiling, strain panel (AID 1159580);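 note: tested at 20 µM; growth read once vehicle control cultures reached saturation at 30 °C; lower values mean less growth of the strain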
Conditions: S. cerevisiae deletion strains, growth OD, locus YAL040C, strain CLN3
In all, about 5,500 compounds went through this assay and about 2,000 (36%) were called active. Roughly 18% stayed inconclusive and do not appear here. Cut-off read from the data, not from the text of the source: active = normalized growth mostly below about 0.91 (no sharp cut-off); inconclusive = no clear call, values can overlap the other calls; inactive = mostly above about 0.92. Some of the results follow.
API: response.call in active, inactive

Outcome? "O=C(O)[C@@H]1C[C@@H](C(=O)O)N1" inactive

For "CC[N+](C)(C)c1cccc(O)c1" , what call appears in the results of this test? inactive

Could you kindly confirm the outcome this assay logged for "Cc1cn[nH]c1" ? inactive

Each compound tested received a call. Report the one for "CN(C)C(=O)Oc1cccc([N+](C)(C)C)c1" . inactive

Which result was noted for this compound in the test: "NNCc1cccc(O)c1" inactive

Record request — test call for CCCN1CC(CSC)CC2c3cccc4[nH]cc(c34)CC21 (stereo not drawn) inactive

Tell me the assay call for "C/C(=C\c1ccc(C(=O)O)cc1)c1ccc2c(c1)C(C)(C)CCC2(C)C" please. inactive

Fill in: this test's call for CC(N)(C(=O)O)c1ccc(C(=O)O)cc1 (stereo not drawn) is ___ active

Assay result, entry "CS(=O)(=O)Nc1ccc([N+](=O)[O-])cc1Oc1ccccc1" — outcome? inactive

For CC(N=C(NC#N)Nc1ccncc1)C(C)(C)C (stereo not drawn) , which call appears in the assay record? inactive

So what was the verdict on COc1cc(CC(C)N)c(OC)cc1I (stereo not drawn) in this test? inactive

State the result this test recorded for Nc1ncnc2c1ncn2C1CCCO1 (stereo not drawn) . inactive

Write down the call the test reported for this compound. Item: "O=C1c2ccccc2-c2n[nH]c3cccc1c23" active
